# system-name: T1, AFP158/HLA-A*02:01 complex (human)
# T1 construct: flowed over the chip in SPR; also called AFP158 pro
# assay-procedure: SPR, KD ratio to AS170036 VL1VH1;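 also: crude scFv captured on a sensor chip, peptide–HLA complex passed over at several concentrations, association then buffer dissociation, KD derived from on- and off-rates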
metric: Affinity increase
The reply should read as a number followed by its unit.

INSERT INTO assay_data (binder, metric, result) VALUES
  ('LD97F (scFv, AS170036 VL1VH1 scFv mutein) scFv: QSALTQPRSVSGSPGQSVTISCAGTSSDVGSENYVSWYQQHPGKAPKLMIYQVNKRASGVPDRFSGSKSGNTASLTISGLQAEDEADYYCASYRSSFHNIVFGGGTKLTVLGGGGSGGGGSGGGGSEVQLVESGGGLVQPGGSLRLSCAASGFTFSSYAMSWVRQAPGKGLEWVSTINSGTGSPYYADSVKGRFTISRDNSKNTLYLQMNSLRAEDTAVYYCAKNFFDGSWFLGPPAMDYWGQGTLVTVSSHHHHHH', 'Affinity increase', '0.5 fold');

Now for the binder whose Affinity increase we want.
Exercise: Reported Affinity increase, binder LH98R (scFv, AS170036 VL1VH1 scFv mutein) scFv: QSALTQPRSVSGSPGQSVTISCAGTSSDVGSENYVSWYQQHPGKAPKLMIYQVNKRASGVPDRFSGSKSGNTASLTISGLQAEDEADYYCASYRSSDRNIVFGGGTKLTVLGGGGSGGGGSGGGGSEVQLVESGGGLVQPGGSLRLSCAASGFTFSSYAMSWVRQAPGKGLEWVSTINSGTGSPYYADSVKGRFTISRDNSKNTLYLQMNSLRAEDTAVYYCAKNFFDGSWFLGPPAMDYWGQGTLVTVSSHHHHHH : ____
Key: 1.1 fold
